Test Description: Intracellular total glutathione (GSH)
Format: cell-based, rat
Recorded Conditions: rat
Property Name: CC50 at 24 h (µM)
One number for each entry, in µM.

Reported CC50 at 24 h of COc1cccc2c1C(=O)c1c(O)c3c(c(O)c1C2=O)C[C@@](O)(C(C)=O)C[C@@H]3O[C@H]1C[C@H](N)[C@H](O)[C@H](C)O1 [DAUNORUBICIN, daunorubicin] : 16

====

Test system: H4IIE cells
Test Description: Intracellular total glutathione (GSH)
Type: cell-based, rat
Property Name: CC50

Reported CC50 of Cc1cn([C@H]2C[C@H](N=[N+]=[N-])[C@@H](CO)O2)c(=O)[nH]c1=O : > 300 µM

====

Test Description: BrdU incorporation
Format: cell-based, human
Recorded Conditions: human; SK-MEL28, 72 HR, run #2; read-out: BrdU TC50
Property Name: CC50 at 72 h
Form field: result (number plus unit)

Reported CC50 at 72 h of C=C(C)[C@H]1Cc2c(ccc3c2O[C@@H]2COc4cc(OC)c(OC)cc4[C@@H]2C3=O)O1 : 44 µM

====

Test Description: Cell number (propidium iodide)
Type: cell-based, rat
Recorded Conditions: rat
Property Name: CC50 at 24 h (µM)
One number for each entry, in µM.

Reported CC50 at 24 h of COc1cccc2c1C(=O)c1c(O)c3c(c(O)c1C2=O)C[C@@](O)(C(C)=O)C[C@@H]3O[C@H]1C[C@H](N)[C@H](O)[C@H](C)O1 : 8

====

Test Description: MTT reduction
Format: cell-based, rat
Recorded Conditions: rat; H4IIE, 24 HR exposure; read-out: MTT TC50
Procedure: One test compound (Compound A) was received as dry powder and evaluated for potential cytotoxicity in a battery of in vitro assays. The compound was tested using both rat cardiomyocytes (CM) from rat neonates and a rat hepatoma (H4IIE) cell line. […] General cytotoxicity was evaluated by monitoring membrane integrity, mitochondrial function, cell proliferation, oxidative stress, and apoptosis. […] The means of each exposure group (n=3-7) were calculated for each assay performed. […]
Property Name: CC50 at 24 h (nM)
Answers are plain numbers, in nM.

Reported CC50 at 24 h of C=C(C)[C@H]1Cc2c(ccc3c2O[C@@H]2COc4cc(OC)c(OC)cc4[C@@H]2C3=O)O1 : 70

====

Test Description: Intracellular ATP levels
Assay type: cell-based, rat
Recorded Conditions: rat
Property Name: CC50 at 1 h

Reported CC50 at 1 h of COc1cccc2c1C(=O)c1c(O)c3c(c(O)c1C2=O)C[C@@](O)(C(=O)CO)C[C@@H]3O[C@H]1C[C@H](N)[C@H](O)[C@H](C)O1 : > 300 µM

====

Test Description: Solubility in culture medium (nephelometry)
Type: physicochemical
Recorded Conditions: dosing medium (complete culture medium with serum), plasma or biological fluid, kinetic from dmso stock; dosing medium, 37° C.; SK-MEL28 24 HR; read-out: Highest Soluble Concentration
Property Name: solubility (µM)
Give bare numbers, in µM.

Reported solubility of CC[C@@]1(O)C(=O)OCc2c1cc1n(c2=O)Cc2cc3ccccc3nc2-1 : 10

====

Test Description: Intracellular ATP levels
Type: cell-based, rat
Recorded Conditions: rat
Property Name: CC50 at 24 h (µM)
Numbers only, in µM.

Reported CC50 at 24 h of COc1cccc2c1C(=O)c1c(O)c3c(c(O)c1C2=O)C[C@@](O)(C(C)=O)C[C@@H]3O[C@H]1C[C@H](N)[C@H](O)[C@H](C)O1 : 7

Hello, the source for this data is patent US7615361B2, in case you need it.
